Reference source for all entries: paper PMC9562916

- Tested on: Caco-2 cell monolayer
- EXPERIMENT: Caco-2 transepithelial transport assay of digested red wine
- Assay type: in vitro ADME, human
- ASSAY_CONDITIONS: apical to basolateral, digested Helanshan red wine
Marks after values point to notes of the source that are not given here.
MEASURED_QUANTITY: Apparent Permeability Coefficients, Helanshan

| COMPOUND | ENDPOINT_VALUE |
| --- | --- |
| O=c1c(OC2O[C@H](CO)[C@@H](O)[C@H](O)[C@H]2O)c(-c2cc(O)c(O)c(O)c2)oc2cc(O)cc(O)c12 (stereo partly shown) | 1.41 ± 0.21 ^a ×10^−6 cm/s |
| COc1cc(-c2oc3cc(O)cc(O)c3c(=O)c2O[C@@H]2O[C@H](CO)[C@@H](O)[C@H](O)[C@H]2O)ccc1O | 4.39 ± 0.31 ^a ×10^−6 cm/s |
| O=c1c(O[C@@H]2O[C@H](CO)[C@@H](O)[C@H](O)[C@H]2O)c(-c2ccc(O)c(O)c2)oc2cc(O)cc(O)c12 | 2.19 ± 0.26 ^a ×10^−6 cm/s |
| COc1cc(-c2[o+]c3cc(O)cc(O)c3cc2O[C@@H]2O[C@H](COC(C)=O)[C@@H](O)[C@H](O)[C@H]2O)cc(OC)c1O | 12.42 ± 2.23 ^a ×10^−6 cm/s |
